Measured values drawn from patent US20250171534A1 for this set.

Biological target: T1, LILRB1-ECD-HIS (SinoBiological Cat #: 16014-H02H) (human, UniProt Q8NHL6 24-461)
T1 construct: Bought protein; also called monomeric antigen LILRB1-ECD-HIS; not shown: His tag
T1 sequence (Q8NHL6 other isoform, or with tags, fused parts or gaps H02H H02H): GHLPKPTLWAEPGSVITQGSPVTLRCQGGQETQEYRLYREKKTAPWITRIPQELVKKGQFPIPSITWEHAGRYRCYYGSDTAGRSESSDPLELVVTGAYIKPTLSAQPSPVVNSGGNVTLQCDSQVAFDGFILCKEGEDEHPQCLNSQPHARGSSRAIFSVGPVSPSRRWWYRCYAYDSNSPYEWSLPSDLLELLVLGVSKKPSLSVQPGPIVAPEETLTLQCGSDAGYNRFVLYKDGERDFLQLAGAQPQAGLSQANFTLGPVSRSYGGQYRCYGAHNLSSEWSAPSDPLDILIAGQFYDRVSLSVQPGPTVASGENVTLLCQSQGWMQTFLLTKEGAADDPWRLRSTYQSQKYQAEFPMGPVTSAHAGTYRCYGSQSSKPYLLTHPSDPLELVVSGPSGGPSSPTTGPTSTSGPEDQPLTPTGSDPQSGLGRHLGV
Assay: SPR (Carterra LSA), antibody captured, antigen injected;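 also: kd obtained from kinetic analysis of antibody binding to the antigen, with association and dissociation phases fitted in the instrument software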
result-type: Kd (nM)
Express the result in nM but write the number alone.

Consider the reported Kd for these binders:
binder: #36 (antibody, human IgG1, V domains shown, also called D2M002-036) VH: QVQLQQSGAELMKPGASVRISCKATGYTFSSSWIEWVKQRPGHGLEWIGEILPGSGTTNYNEKFKGKATFTADTSSNTAYMQLSSLTSEDSAVYYCARSGAGGYDSGAFTYWGQGTLVTVSA VL: DIVLTQSPASLAVSLGQRATISCRASESIDTYGNSFMHWYQQKPGQPPKLLIYRASNLESGIPARFSGSGSRTDFTLTINPVEADDVATYYCQQSNEDPWTFGGGTKLEIK
Kd [nM]: 3.44

binder: D2M002-004 (antibody, human IgG1, V domains shown, Hit; also called clone #4) VH: EVQLQQSGAELVRPGALVKLSCKASGFNIKDYYMHWVKQRPEQGLEWIGWIDPESGNTIYDPKFQGKASMTADTSSNTAYLQLSSLTSEDTAVYYCARLDGSSYYAMDYWGQGTSVTVSS VL: DILLTQSPASLAVSLGQRATISCRASESVDSYGNSFMHWYQQKPGQPPKLLIYLASNLESGVPARFSGSGSRTDFTLTIDPVEADDAATYYCQQNNEDPLTFGAGTKLELK
Kd [nM]: 23.6

Read the next record carefully.
Record request: Kd value, item #17 (antibody, human IgG1, V domains shown, also called D2M002-017) VH: EVQLQQSGAELMKPGASVKISCKTTGNTFSSYWIEWVKQRPGHDLEWIGEILPGSGSSNYNEKFKGKATFTADTSSNTAYMQLNSLTSEDSAVYYCARSGAGGYDSGAFAYWGQGTLVTVSA VL: DIVLTQSPASLAVSLGQRATISCRASESVDSYGNSFMHWYQQKPGQPPKLLIYRTSNLESGIPSRFSGSGSRTDFTLTINPVEADDVATYYCQQSNEDPWTFGGGTKLEIK
1.18
